Where these numbers come from: patent EP2272817A1

What inhibition at 10 µM was measured for each of the following?
Target: recombinant human PAI-1 (Homo sapiens, UniProt P05121);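 further: PAI-1 preincubated with compound, then two-chain tPA added, residual tPA activity read with fluorogenic Pyr-Gly-Arg-MCA substrate after 30 min at room temperature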
Sequence (P05121 24-402): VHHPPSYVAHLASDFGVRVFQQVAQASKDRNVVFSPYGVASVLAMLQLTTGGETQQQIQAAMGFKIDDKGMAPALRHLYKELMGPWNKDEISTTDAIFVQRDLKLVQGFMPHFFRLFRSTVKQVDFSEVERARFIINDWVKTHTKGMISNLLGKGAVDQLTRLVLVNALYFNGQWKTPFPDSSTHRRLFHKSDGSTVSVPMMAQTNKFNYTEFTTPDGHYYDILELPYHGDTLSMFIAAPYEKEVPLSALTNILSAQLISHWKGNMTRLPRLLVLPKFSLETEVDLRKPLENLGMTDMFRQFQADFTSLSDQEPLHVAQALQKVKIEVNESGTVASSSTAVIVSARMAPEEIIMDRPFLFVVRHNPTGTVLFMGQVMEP
Assay: biochemical
Conditions: read-out: Inhibition Rate of PAI-1 Activity (%)
Answers are plain numbers, in %.

O=C(O)CCc1cc(OCc2ccc(OC(F)(F)F)cc2)ccc1OCc1ccc(OC(F)(F)F)cc1 = 31
CN(C(=O)C(=O)O)c1ccc(OCc2ccc(OC(F)(F)F)cc2)c(OCc2ccc(OC(F)(F)F)cc2)c1 = 41
CC(C)(C)c1ccc(CN(C(=O)C(=O)O)c2ccccc2-c2ccc(OC(F)(F)F)cc2)cc1 = 55

Query: // returns reported inhibition at 10 µM for input O=C(O)C(=O)N(CCCCc1ccccc1)c1ccc(N2CCCCC2=O)c(-c2ccc(OC(F)(F)F)cc2)c1
Reply: 78
